tested on: Saccharomyces cerevisiae; test: protein stability index of tFT-peptide fusion (C-terminal peptide) (PSI (0-1 scale)); higher = more stable (slower turnover); settings: genetic background: wild type; temperature: 30 C;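 further: PSI is a weighted mean of sequencing reads over stability bins, variants kept only with over 10 reads, mCherry proximal and sfGFP distal, peptide attached via GGGS linker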
Reported property: protein stability index
Keep the answer to the number alone.

Need protein stability index, item `AELALGIESYLP`
0.683

Need protein stability index, item `LQSSSCLLYPSS`
0.681

Need protein stability index, item `LSFDAVSVGFGG`
0.691

Need protein stability index, item `GPSLLAAQAHTN`
0.704

Need protein stability index, item `IWRPGVAQSGLA`
0.72

Need protein stability index, item `APVRSSIALKSD`
0.703

Need protein stability index, item `SPTRPPSPIISR`
0.718

Need protein stability index, item `ELKKKYNEKKRI`
0.688

Need protein stability index, item `VTGDRGGVRGGE`
0.685
